# key: entry, value: TGI
# Test system: A549 NSCLC
# METHOD SUMMARY: NCI tumour cell line growth inhibition, 48 h

// worked examples, TGI included
COMPOUND	ENDPOINT	REPORTED MEASUREMENT
COc1c(C(=O)/C=C/c2ccccc2)c(O)cc2occc12	TGI	29 µM
c1ccc(CNc2nncc3[nH]cnc23)cc1	TGI	> 100 µM
CC1(C)/C(=C/N=O)N(O)C(C)(C)N1O	TGI	> 100 µM
COc1cc(Br)cc2cc(-c3cn4c(n3)sc3ccccc34)c(=O)oc12	TGI	> 75 µM

Asked: Param readout= TGI; system= A549 NSCLC; entry= Clc1ccc(C[P+](c2ccccc2)(c2ccccc2)c2ccccc2)c(Cl)c1 ; returns value.
Given back: 32.5 µM

Asked: Also CC1(C)OC(=O)N(c2ccccc2)C12C=Cc1cc([N+](=O)[O-])ccc1O2 (configuration not stated) ?
Given back: > 100 µM

Asked: And for CCC(C)NC1=NCC(C)S1 (configuration not stated) ?
Given back: > 100 µM

Asked: Continue with CN(C)CCC1(C2=CCCC2)CC/C(=C\c2ccc(Cl)cc2)C1=O (configuration not stated)
Given back: 26.9 µM

---

# Tested on: U251 CNS
# METHOD SUMMARY: NCI tumour cell line growth inhibition, 48 h
Known TGI of a selection of compounds

Previously resolved entries follow.
COMPOUND	TGI
O=C(NC(Cc1ccccc1)(Cc1ccc(O)cn1)C(=O)O)c1ccccc1 (stereo not drawn)	> 100 µM
CCOC(=O)CC(C)C1(C(=O)OCC)CCCCC1=O (stereo not drawn)	> 100 µM
CCCc1c(O)nc(Nc2nc3ccccc3[nH]2)[nH]c1=O	> 100 µM

Asked: // TGI lookup, key: CCOC(=O)C1C(=O)CC1(C)C (stereo not drawn)
Given back: > 10 µM

Asked: Then CCN(CC)CCSc1c2cc(OC)ccc2nc2ccc(OC)cc12 ?
Given back: > 53.1 µM

---

# Test system: SK-MEL-2 melanoma
# METHOD SUMMARY: NCI tumour cell line growth inhibition, 48 h
ENDPOINT: TGI (µM)
Form entry: value (µM) — number only.

Record excerpt, results attached:
MOLECULE	TGI / µM
CC1=CC(=O)C=CC1=O	66.3
Cc1ccc2c3c1O[C@H]1c4[nH]c5ccccc5c4C[C@@]4(O)[C@@H](C2)N(CC2CC2)CC[C@]314	31.6
CC/C=C\C[C@H](O)C/C=C1/C(=O)C=C[C@@H]1C/C=C\CCCC(=O)OC	4.2
Cc1ccc(NC(=O)c2cccc(C(C)(C)C#N)c2)cc1Nc1ccc2ncn(C)c(=O)c2c1	8.69
COC(=O)Nc1nc2ccc(S(=O)(=O)SC)cc2[nH]1	26.9

Asked: Using the record for COC1=C(OC)C(=O)C(Cc2c(C)nc3sccn23)=C(C)C1=O , report its TGI.
Given back: 41.5

Asked: Note, next up: COc1ccc(-c2nc3ccccn3c2/C=C/C(=O)c2cc(OC)c(OC)c(OC)c2)cc1OC
Given back: 7.19

Asked: Entry to check: CCN(CC)C1CC(O[C@H]2C[C@](O)(C(=O)CO)Cc3c(O)c4c(c(O)c32)C(=O)c2c(OC)cccc2C4=O)OC(C)C1O (some centres undefined)
Given back: 0.193

Asked: Next record, please: COc1ccc(/C=C/c2c(C(=O)/C=C/c3ccccc3)c(C)nc3ccccc23)cc1
Given back: 5.06

Asked: Another: CCN(CC)CCSc1c2cc(OC)ccc2nc2ccc(OC)cc12
Given back: 44.6

Source listed as PubChem BioAssay (NCI).
